Target: recombinant human LDHA (Homo sapiens)
Assay: LDHA enzymatic assay with increasing levels of NADH
Type: biochemical
Conditions: NADH 120 μM; read-out: LDHA IC50 at high NADH
RESULT TYPE: IC50
Don't forget the unit after the value.

Fetch value of IC50 on recombinant human LDHA (Homo sapiens) for COc1ncc(-c2ccc3c(Nc4cc(C(=O)O)cc(C5CCCC5)c4)c(S(=O)(=O)NC4CC4)cnc3c2)c(OC)n1 [Compound 2] .
67 nM

---

Exercise: for every item that follows, state its recorded IC50.
Target: recombinant human LDHA (Homo sapiens)
Test: recombinant human LDHA enzyme assay (lactate to pyruvate, NADH via diaphorase/resazurin)

Fetch value of IC50 on recombinant human LDHA (Homo sapiens) for COc1ncc(-c2ccc3c(Nc4cc(Oc5ccc(F)cc5)cc(C(F)(F)F)c4)c(S(=O)(=O)NC4CC4)cnc3c2)c(OC)n1 .
> 50000 nM

Fetch value of IC50 on recombinant human LDHA (Homo sapiens) for COc1ncc(-c2ccc3c(Nc4cc(C(=O)O)cc(C5CCCC5)c4)c(S(=O)(=O)NC4CC4)cnc3c2)c(OC)n1 .
16 nM

Measured values drawn from paper PMC4178217 for this set.
